Tested on: TO-N3 (biotin conjugate)
TEST_PROTOCOL: pull-down binding Z-score (relative to library population); higher = stronger binding
CONDITION_CONTEXT: RNA library: Library-2

SEQUENCE_STRING | TARGET_OR_TEST_SYSTEM | pull-down binding Z-score
GAGGUAAGUACGAUACUUACCUG [U1snRNP5ss-7] | TO-N3 (biotin conjugate) | -1.17
GGCCUGGGAUUCCUGCCUUCUAGGUC [hsa-mir-8078] | TO-N3 (biotin conjugate) | 0.707
AGAUGUGUUUCCAUUCCACUAUCAUAAU [hsa-mir-365a] | TO-N3 (biotin conjugate) | -0.0846
GCAGCUGGAAUUCAAGCCCUGCUGC [hsa-mir-6882] | TO-N3 (biotin conjugate) | -0.475

====

Test system: TO-N3 (biotin conjugate)
TEST_PROTOCOL: pull-down binding Z-score (relative to library population); higher = stronger binding
CONDITION_CONTEXT: RNA library: Library-2
Known pull-down binding Z-score of a selection of sequences
QUANTITY_MEASURED: pull-down binding Z-score

SEQUENCE_STRING | QUANTITY_MEASURED | RESULT
AUACUGGAGCAAUAGAUACAGUU [hsa-mir-3692] | pull-down binding Z-score | -0.663
AGCACUUUCUGUUGUCUGAAAGAAAAGAAAGUGCU [hsa-mir-516a-1_516a-2] | pull-down binding Z-score | 0.686
GUUGUUUUUAGAUAACUAAAUCGACAAC [hsa-mir-7-1] | pull-down binding Z-score | 0.59
GUGGACAGAGGCAAAACUCUAACUUC [hsa-mir-6078] | pull-down binding Z-score | 0.0919

====

Tested on: TO-N3-2 (biotin conjugate)
TEST_PROTOCOL: pull-down binding Z-score (relative to library population); higher = stronger binding
CONDITION_CONTEXT: RNA library: Library-2
Known pull-down binding Z-score of a selection of sequences

SEQUENCE_STRING | pull-down binding Z-score
AUCUGCAGGGCAUUGUGCUAACAGGU [hsa-mir-4681] | 0.0756
CAAAGACCAGAACUUAAUGGUCUCUG [hsa-mir-4490] | -1.15
CACAAGGCAGAUGGGCUAUAUAAACGUUUUCGCUUUUCCGUUUACGAUAUAUAGUCUACUCUUGUG | -0.455
GGUUUAGCUGCUGUUAAUAGUGUCCCUUGGGAUACUAUAGCUAAUUAUGCUAAGCC | -0.225
AUUUUUCUAAACUGAUAAAU [DMSMaPseq_invitro_SARS-CoV-2_Motif_131] | -1.08
GUUCGCUUAAUUUAUGACGAAUC [hsa-mir-487a] | -0.483
CUUCCCAUUUAAAAGUAAUGGCACA [hsa-mir-603] | 0.104
GUGUAGAGGCGGAGCACAG [hsa-mir-1471] | 1.46
CUGCCAUUGAAAGUAAAGGCAA [hsa-mir-548ag-2] | 0.104
ACUUUCUGUUUGAAAGAAAACAAAGU [hsa-mir-519e] | -0.767
CCCCGGCCCCGGCCCCGGCCCCGG [r(CCCCGG)4] | 1.48
CCUGGUCAUGCAGAUCUCAGUGCCAAGGAGGCACAGGAUGUAAUCAUGGAAGUUGUUUUCCCUAACGAAGUGGGAGCCAGG | 0.44
